Would you kindly list exchange rate vs Pos peptide for each of these binders?
target: T1, HLA-A*03:01 (human, biotinylated heavy chain); test: UV peptide exchange + HLA class I ELISA
T1 construct: Conditional HLA class I complex first loaded with a UV-labile peptide, exchanged for the test peptide after UV; also called conditional HLA class I complex

IN: Quick one: exchange rate vs Pos peptide of STRRAVRRM (Synthetic 9-mer fragment) [P16 9-mer peptide (MSMB-NCOA4 fusion)] ?
OUT: 6.1%

IN: Quick one: exchange rate vs Pos peptide of IQYSCMGLM [P50 9-mer peptide (AR (W742C))] ?
OUT: 5.5%

IN: Quick one: exchange rate vs Pos peptide of NMVENGCYL [P59 9-mer peptide (FOXA1 (F254V))] ?
OUT: 4.5%

IN: Quick one: exchange rate vs Pos peptide of FFKRAAEGF [P77 9-mer peptide (AR-V3 splice variant)] ?
OUT: 2.8%

IN: Quick one: exchange rate vs Pos peptide of GVLRRLLCR [P37 9-mer peptide (TSTD1-F11R fusion)] ?
OUT: 6.4%

IN: Quick one: exchange rate vs Pos peptide of FPVGAEGTF [P27 9-mer peptide (FAM126B-ORC2 fusion)] ?
OUT: 4.5%

IN: Quick one: exchange rate vs Pos peptide of NSKMALNSL [P35 9-mer peptide (TMPRSS2-ERG fusion)] ?
OUT: 4.2%
